- EXPERIMENTAL TARGET: Coagulation Factor XIa protease (Homo sapiens (Human))
- Sequence (P03951 388-625): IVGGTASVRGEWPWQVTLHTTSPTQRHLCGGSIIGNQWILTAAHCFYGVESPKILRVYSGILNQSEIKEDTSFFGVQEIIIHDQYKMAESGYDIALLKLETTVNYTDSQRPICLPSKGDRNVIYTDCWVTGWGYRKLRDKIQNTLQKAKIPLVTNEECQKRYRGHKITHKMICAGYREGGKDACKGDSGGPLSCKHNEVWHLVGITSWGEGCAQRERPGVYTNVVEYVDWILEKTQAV
- Sequence (P03951 19-387 partner): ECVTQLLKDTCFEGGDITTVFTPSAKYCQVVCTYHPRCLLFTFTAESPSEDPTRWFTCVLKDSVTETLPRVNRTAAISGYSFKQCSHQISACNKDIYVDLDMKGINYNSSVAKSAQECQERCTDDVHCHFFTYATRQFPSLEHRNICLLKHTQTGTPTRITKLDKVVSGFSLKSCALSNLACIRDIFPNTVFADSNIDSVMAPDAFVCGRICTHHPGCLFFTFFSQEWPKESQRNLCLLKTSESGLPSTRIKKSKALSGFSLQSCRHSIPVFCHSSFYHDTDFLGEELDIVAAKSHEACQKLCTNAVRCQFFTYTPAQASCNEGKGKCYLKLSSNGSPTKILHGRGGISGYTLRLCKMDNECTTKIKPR
Exercise: state measured IC50 for each of the compounds provided.
Just so you know, I need the unit written after the number.

# input Return reported IC50; argument: COc1cn([C@@H](CCOC(C)(C)C)C(=O)Nc2ccc(C(=O)O)cc2)c(=O)cc1-c1cc(Cl)ccc1C(C)=O
# output 0.018 µM

# input Now consider COc1cn([C@H](Cc2ccn(C3CC3)n2)C(=O)Nc2ccc(C(=O)O)cc2)c(=O)cc1-c1cc(Cl)ccc1C(C)=O and answer again.
# output 7.51 µM

# input Further, for COc1cn(C(Cc2cccc(C)c2)C(=O)Nc2ccc(C(=O)O)cc2)c(=O)cc1-c1cc(Cl)ccc1C(C)=O (stereo not drawn) ?
# output 0.035 µM

# input Try this compound next: COc1cn(C(CC2CC2)C(=O)Nc2ccc(C(=O)O)cc2)c(=O)cc1-c1cc(Cl)ccc1C(C)=O (stereo not drawn)
# output 0.092 µM

# input Further, for COc1cn(C(CCOC2CCC2)C(=O)Nc2ccc(C(=O)O)cc2)c(=O)cc1-c1cc(Cl)ccc1C(C)=O (stereo not drawn) ?
# output 0.035 µM

# input What would you report for COCCC(C(=O)Nc1ccc2[nH]c(C(=O)O)cc2c1)n1cc(OC)c(-c2cc(Cl)ccc2C(C)=O)cc1=O (stereo not drawn) ?
# output 0.034 µM

# input Subsequent entry: CCC(=O)c1ccc(Cl)cc1-c1cc(=O)n(C(CCOC(C)(C)C)C(=O)Nc2ccc3nccnc3c2)cc1OC (stereo not drawn)
# output 0.033 µM

# input What do we get for COc1cn(C(Cc2ccccc2)C(=O)Nc2ccc3nccnc3c2)c(=O)cc1-c1cc(Cl)ccc1C(C)=O (stereo not drawn) ?
# output 0.069 µM

# input Next entry: COc1cn(C(CC2CC(C)(C)C2)C(=O)Nc2ccc(C(=O)O)cc2)c(=O)cc1-c1cc(Cl)ccc1C(C)=O (stereo not drawn)
# output 0.1 µM

# input Could you do the same for COc1cn([C@@H](Cc2ccn(C3CC3)n2)C(=O)Nc2ccc(C(=O)O)cc2)c(=O)cc1-c1cc(Cl)ccc1C(C)=O , please?
# output 0.024 µM

# input # iterate: COc1cn([C@@H](Cc2cccnc2)C(=O)Nc2ccc(C(=O)O)cc2)c(=O)cc1-c1cc(Cl)ccc1C(C)=O
# output 0.042 µM

# input Same lookup for COc1cn(C(CC2CCC2)C(=O)Nc2ccc(C(=O)O)cc2)c(=O)cc1-c1c(C(C)=O)ccc(Cl)c1F (stereo not drawn) , please.
# output 0.033 µM

# input What about this compound? COc1cn([C@@H](Cc2ccccc2)C(=O)Nc2ccc(C(=O)NC3CC3)cc2)c(=O)cc1-c1cc(Cl)ccc1C(C)=O
# output 0.047 µM

# input Okay, and CCC(=O)c1ccc(Cl)cc1-c1cc(=O)n([C@@H](Cc2ccccc2)C(=O)Nc2ccc(C(=O)O)cc2)cc1OC ?
# output 0.014 µM

# input Thanks! And COc1cn([C@@H](Cc2ccccc2)C(=O)Nc2ccc3nn(C)cc3c2)c(=O)cc1-c1cc(Cl)ccc1C(C)=O ?
# output 0.036 µM

# input What would you report for COc1cn(C(Cc2ccc(NC(=O)C3CC3)cc2)C(=O)Nc2ccc(C(=O)O)cc2)c(=O)cc1-c1cc(Cl)ccc1C(C)=O (stereo not drawn) ?
# output 0.1 µM

# input Also COc1cn(C(Cc2ccc(Cl)cc2)C(=O)Nc2ccc(C(=O)O)cc2)c(=O)cc1-c1cc(Cl)ccc1C(C)=O (stereo not drawn) , if possible.
# output 0.049 µM

# input What about this compound? CCCC(=O)c1ccc(Cl)cc1-c1cc(=O)n(C(Cc2ccccc2)C(=O)Nc2ccc(C(=O)O)cc2)cc1OC (stereo not drawn)
# output 0.036 µM

# input Repeat for the following compound: COc1cn(C(Cc2ccccc2Cl)C(=O)Nc2ccc(C(=O)O)cc2)c(=O)cc1-c1cc(Cl)ccc1C(C)=O (stereo not drawn)
# output 0.054 µM

# input Next compound up: COc1cn(C(Cc2ccccc2F)C(=O)Nc2ccc(C(=O)O)cc2)c(=O)cc1-c1cc(Cl)ccc1C(C)=O (stereo not drawn)
# output 0.047 µM

# input Now this one: COc1cn([C@H](Cc2ccccc2)C(=O)Nc2ccc3nn(C)cc3c2)c(=O)cc1-c1cc(Cl)ccc1C(C)=O
# output 5.69 µM

# input Then this compound: CCC(=O)c1ccc(Cl)cc1-c1cc(=O)n(C(CCOC(C)(C)C)C(=O)Nc2ccc3[nH]c(C(=O)O)cc3c2)cc1OC (stereo not drawn)
# output 0.045 µM

# input Next entry: COc1cn([C@@H](CCOC2CCC2)C(=O)Nc2ccc(C(=O)O)cc2)c(=O)cc1-c1cc(Cl)ccc1C(C)=O
# output 0.03 µM

# input // query: CCC(=O)c1ccc(Cl)cc1-c1cc(=O)n(C(CCOC(C)(C)C)C(=O)Nc2ccc3nc(C)c(C)nc3c2)cc1OC (stereo not drawn)
# output 0.1 µM

# input What would you report for CCC(=O)c1ccc(Cl)cc1-c1cc(=O)n(C(Cc2ccccc2)C(=O)Nc2ccc3[nH]cnc3c2)cc1OC (stereo not drawn) ?
# output 0.03 µM

# input Next up: CCC(=O)c1ccc(Cl)cc1-c1cc(=O)n(C(CCOC(C)(C)C)C(=O)Nc2ccc3nn(C)cc3c2)cc1OC (stereo not drawn)
# output 0.066 µM

# input Repeat for the following compound: COc1cn(C(CCOC(C)(C)C)C(=O)Nc2ccc(C(=O)O)cc2)c(=O)cc1-c1cc(Cl)ccc1C(C)=O (stereo not drawn)
# output 0.053 µM
